The origin of these recorded values is patent US20180009877A1.

assayedSystem: polypeptide HER2/ECD (human, UniProt P04626 23-646)
method: SPR (BIAcore), HER2/ECD immobilized, IgG in flow
propertyMeasured: kon (M⁻¹ s⁻¹)
Numbers only, in M⁻¹ s⁻¹.

[[record]]
binder = "M64 (antibody) MAELDIQMNQSHKFMSTSVGDRVSITCKASQDVSTAVAWYQQKPGQSPKLLIYWASTRHTGVPGRFTGSGSGADYTLTISSVQAEDLALYYCQQHYSTPYTFGGGTKLEIKSSGGGGSGGGGGGSSRSSLEVQLQQSGAELVKPGASVKLSCTASGFNIKNTYMHWVKQRPEQGLEWIGRIDPANGNTKYDPKLQGKATITADTSSNTAYLHLSSLTSEDTAVYYCVPYYRGAMDYWGQGTSVTVSSESQSFPNVTSAAAGAPVPYPDPLEPRAA"
propertymeasured = "kon"
unitname = "M⁻¹ s⁻¹"
number = "1.74e+06"


Proceed to the following item.
For the binder M62 (antibody, also called antibody M62) MAELDIQMIQSQKFMSTSVGDRVSVTCKASQNVGTNVAWYQQKPGQSPKALIHSASYRYSGVPDRFTGSGSGTDFTLTISNVQSEDLAEYFCQQYNSYPLTFGAGTKLEIKSSGGGGSGGGGGGSSRSSLEVQLQQSGTELARPGASVKLSCKASGYTFIDYYITWVKQRTGQGLEWIGEIYPGGGNPYYNDNFKGKASLTADKSSNTVYMQLSSLTSEDSAVYFCARSYKYDVSVYWGQGTLVTVSAAKTTPPSVTSAAAGAPVPYPDPLEPRAA , give its measured kon value.
788000
